- Tested on: HT-29
- experiment.description: NCI tumour cell line growth inhibition, 48 h
Active and inactive are the calls of the source. Rule as the data show it: active = GI50 up to about 1.1 µM and inactive = higher.
property: GI50

| molecule | result |
| --- | --- |
| Cc1c2c(C#N)nccc2c(C)c2c1c1ccccc1n2Cc1ccccc1 | > 100 µM (inactive) |
| Cc1cccc(-c2nc(-c3cnccn3)n(Cc3ccccc3)n2)c1 | > 100 µM (inactive) |
| [N-]=[N+]=CC(=O)C1(C(=O)C=[N+]=[N-])CC1 | > 100 µM (inactive) |
| OC1NC2CC3NC(O)C(O)NC3CC2NC1O (stereo unspecified) | > 100 µM (inactive) |
| C=C(CO)CC(/C=C(\C)CC/C=C(\C)CCl)OC(C)=O (stereo unspecified) | > 100 µM (inactive) |
| Cn1c2c(c3ccccc31)C1CCCCC1C1C(=O)NC(=O)C21 (stereo unspecified) | 33.1 µM (inactive) |

Report GI50 for each item below.
1. O=C1c2ccccc2-c2nc(-c3ccncc3)cc3c2c1nc1ccccc13
2. Cn1c(=O)nc2n(-c3ccc(F)cc3)c3ccccc3nc-2c1=O
3. Cn1c(N)nc2c(nc(OCc3ccccc3)n2C2OC(CO)C(O)C2O)c1=O (stereo unspecified)
4. CCOC1NC(=O)Oc2ccccc21 (stereo unspecified)
5. CNC(=O)c1ccccc1-[s+]1c2ccccc2c(=O)n1C (stereo unspecified)
6. COc1ccc2c(CCNS(=O)(=O)c3ccccc3)c(C(C)=O)[nH]c2c1[N+](=O)[O-]

[out]
1: 24.9 µM (inactive); 2: 14.1 µM (inactive); 3: > 100 µM (inactive); 4: > 100 µM (inactive); 5: > 100 µM (inactive); 6: > 100 µM (inactive)

---

- Tested on: SK-MEL-2
- experiment.description: NCI tumour cell line growth inhibition, 48 h
Active and inactive are the calls of the source. Rule as the data show it: active = GI50 up to about 1.1 µM and inactive = higher.
A correct response names exactly one class from active, inactive

Reference set, count: 5
| molecule | label.value |
| --- | --- |
| O=C1c2ccccc2C(=O)N1n1c(Cc2ccccc2)n[nH]c1=O | inactive |
| CP1(=O)CCCCC1 | inactive |
| COP(C)(=O)C(Cc1c[nH]c2ccccc12)NC(=O)OCc1ccccc1 (stereo not given) | inactive |
| Cc1cc(=O)oc2cc(OCc3nc4ccccc4c(=O)n3-c3ccccc3)ccc12 | inactive |
| N#C/C(=C\c1cc(Br)c(O)c(Br)c1)c1cccnc1 | inactive |

[in] Field: outcome | Entry: Cc1cc(C)nc(NS(=O)(=O)c2ccc(Nc3c4ccccc4nc4c(C(=O)N5CCN(CCOS(C)(=O)=O)CC5)ccc(Cl)c34)cc2)n1
[out] inactive

[in] // next record C=C1CCCC(C)(C)[C@@H]1CC/C(C)=C/Cn1c2cccc(=O)c-2nc2ccccc21
[out] inactive

[in] // next record CN(C)CCNC1=C(Cl)C(=O)c2c(O)ccc(O)c2C1=O
[out] inactive

[in] // next record Oc1cc(-c2cccc3ccccc23)nc2ncccc12
[out] active

[in] // next record COc1c2c(cc3c1OCO3)C13C=CC(OC)CC1N(CC3)C2.[O-][Cl+3]([O-])([O-])O (stereo not given)
[out] inactive

---

- System: SF-268
- experiment.description: NCI tumour cell line growth inhibition, 48 h
The source made the active and inactive calls. Cut-off read from the data, not from the text of the source: active = GI50 up to about 1.1 µM and inactive = higher.
property: GI50

As a guide, the following entries are already answered.
| compound | target.or.system | result |
| --- | --- | --- |
| O=c1ccn2n1Cc1ccccc1C2 | SF-268 | > 100 µM (inactive) |
| COC(=O)c1c/c(=N\NC(=O)CC(=O)Nc2ccc(C)cc2)c2ccccc2o1 | SF-268 | > 100 µM (inactive) |
| COc1ccc(C2=Nc3ccccc3N=C(SC)C2)cc1 | SF-268 | > 100 µM (inactive) |
| CCOC(=O)C(=Cc1ccc(C(=O)OC)cc1)C(=O)OCC | SF-268 | 2.4 µM (inactive) |
| NC(CCCNCc1ccccc1O)C(=O)O (centres undefined) | SF-268 | > 100 µM (inactive) |
| O=C(/C=C/c1ccc(Cl)c(Cl)c1)c1ccc(F)cc1 | SF-268 | 28.2 µM (inactive) |

Report GI50 for each item below.
1. CC(C)(C)n1nc(C2CC2)cc1NC(=O)Nc1ccc(Cl)cc1
2. N/N=C(\CC1OC(=O)c2ccccc21)c1ccco1 (centres undefined)
3. O=c1[nH]c(=S)[nH]c(-c2ccccc2)c1Cc1c(O)ccc2ccccc12
4. CCNC(=O)C#CC(=O)NCC
5. CCC(=C(c1ccc(OCc2ccccc2)cc1)c1ccc(OCc2ccccc2)cc1)c1ccc(OC)cc1
6. CCOC(CBr)OC1C(=O)OCC1(C)C (centres undefined)
7. COc1ccc2c(c1)-c1c(c3cc(OC)ccc3n1CCCN(C)C)CC2

[out]
1. > 100 µM (inactive)
2. > 100 µM (inactive)
3. 24.7 µM (inactive)
4. 53.7 µM (inactive)
5. > 100 µM (inactive)
6. > 100 µM (inactive)
7. 10.7 µM (inactive)
